# System: cancer stem cells
# run_description: Survival rate of cancer stem cells after test compound is added (flow cytometry, Annexin V-FITC/PI, clinical specimen)
# Assay type: cell-based, patient
# test_settings: Homo sapiens, 18 h, Skin cancer; 20.0 μM
For each entry below, report its viability at 20 µM value.
Numbers only, in %.

Past entries and their recorded results:
| molecule | viability at 20 µM, % |
| --- | --- |
| C=C1C(=O)O[C@H]2[C@H]1CC[C@]1(C)O[C@@]13CC[C@@](C)(O)[C@H]23 | 39 |
| CN(C)C[C@@H]1C(=O)O[C@H]2[C@H]1CCC1(CC1)[C@@H]1CCC3(CC3)[C@H]21 | 77 |
| C=C1C(=O)O[C@H]2[C@H]1CC[C@@](C)(OC)C1CC[C@@](C)(O)[C@@H]12 (stereo partly shown) | 78 |
| [2H][C@@]1(CN(C)C)C(=O)O[C@@H]2[C@@H]3[C@@H](CCC34CC4)C3(CC[C@H]21)CC3 | 77 |
| C=C1C(=O)O[C@@H]2[C@H]3C(C)=CC[C@@]34O[C@@]4(C)CC[C@@H]12 | 43 |
| C=C1C(=O)O[C@@H]2[C@@H]3[C@@H](CC[C@@]3(C)O)C(=C)CC[C@@H]12 | 39 |

Moving on to the next molecule.
Query for cancer stem cells: what viability at 20 µM does the record show for C=C1C(=O)O[C@@H]2[C@@H]3[C@@H](CC[C@@]3(C)O)[C@](C)(O)CC[C@@H]12 ? 79

Values from patent US10463644B2
